molecular target: biotinylated soluble HLA-A2/WT1_(126) (…) complex (Homo sapiens, HLA-A*02:01, biotin (the complex is biotinylated; site not stated)); assay: SPR
We begin with a simple list: items and their reported kon.
State the answer as a number, implicitly in M⁻¹ s⁻¹.

Problem: Entry under review: Q2L scFv (scFv, V domains shown) VH: EVQLLESGGGLVQPGGSLRLSCAASGFTFSSYAMSWVRQAPGKGLEWVSLIDPWGQETLYADSVKGRFTISRDNSKNTLYLQMNSLRAEDTAVYYCAKLTGRFDYWGQGTLVTVSS VL: DIQMTQSPSSLSASVGDRVTITCRASQSISSYLNWYQQKPGKAPKLLIYSASLLQSGVPSRFSGSGSGTDFTLTISSLQPEDFATYYCQQGPGTPNTFGQGTKVEIK . Reported kon?
Solution: 115000

Consider now this further binder.
Problem: Entry under review: S3.3 scFv (scFv, V domains shown) VH: EVQLLESGGGLVQPGGSLRLSCAASGFTFSSYAMSWVRQAPGKGLEWVSLIDPWGQETLYADSVKGRFTISRDNSKNTLYLQMNSLRAEDTAVYYCAKLTGRFDYWGQGTLVTVSS VL: NIQMTQSPSSLSASVGDRVTITCRASQSISSYLNWYQQKPGKAPKLLIYSASLLQSGVPSRFSGNGSGTDFTLTISSLQPEDFATYYCQQGPGTPNTFGQGTKVEIK . Reported kon?
Solution: 22000
